PROTOCOL_TEXT: NCI Yeast Anticancer Drug Screen. Data for the bub3 strain (AID 167)
CONDITION_DETAILS: S. cerevisiae bub3 mutant strain, at 50.0 µM (retest, dose inferred, filed as 5.0), stronger effect = higher value
This is part of a sample that, as a whole, favours compounds with a hit. Of some 79,000 tested, about 15% had one in any assay.
growth inhibition of 80% or higher: YES. Under 80%: NO.

COMPOUND: C[Si]1(C)CCCCC2(C1)C(=O)NC(=O)NC2=O
CATEGORY: NO
--
COMPOUND: O=[As]c1ccc(Cl)cc1Cl (configuration not stated)
CATEGORY: YES
--
COMPOUND: COC1=CC(C)(C)C=C([Se][Se]C2=CC(C)(C)C=C(OC)C2=O)C1=O
CATEGORY: NO

## Input Determine whether this compound has growth inhibition no lower than 80%: ClC1=C(Cl)C2(Cl)C(C3CO3)CC1(Cl)C2(Cl)Cl (configuration not stated)
## Output NO

## Input For this compound, is measured growth inhibition 80% or higher? C[n+]1ccccc1-c1nc(-c2cccc[n+]2C)nc(-c2cccc[n+]2C)n1
## Output NO

## Input # bool: growth inhibition of CC(=O)Nc1ccccc1[As](O[As](c1ccccc1)c1ccccc1NC(C)=O)c1ccccc1 (configuration not stated) >= 80%
## Output YES

## Input Answer whether growth inhibition of CCOc1cc(/C=C/[N+](=O)[O-])ccc1O is greater than or equal to 80%.
## Output YES

## Input In plain terms: is recorded growth inhibition at least 80% for CCN(Cc1ccccc1)CC(O)c1ccc(Cl)c(Cl)c1 (configuration not stated) ?
## Output YES

## Input Entry CN(N=O)C(=O)NNC(=O)N(C)N=O : is its growth inhibition no less than 80%?
## Output NO

## Input Reported growth inhibition at or above 80%? CCc1cccc(C(C)C)c1NC1=C([n+]2ccc(C)cc2)C(=O)c2ccccc2C1=O
## Output NO

## Input Answer whether growth inhibition of O=C1NC(=O)C([N+](=O)[O-])C(=O)N1 is greater than or equal to 80%.
## Output NO

## Input Given CCC1(O)C(=O)OCc2c1cc1n(c2=O)Cc2cc3ccccc3nc2-1 (configuration not stated) , state whether its growth inhibition is at least 80%.
## Output NO

## Input Record CC(Br)c1ccccc1 (configuration not stated) ; criterion: growth inhibition no lower than 80%. Met?
## Output NO

## Input Please tell me: is the compound O=[N+]([O-])c1c(Cl)sc(Cl)c1[N+](=O)[O-] at or over 80% in terms of growth inhibition?
## Output YES

## Input Hello, I need to know if CC(O)C(=O)O.CC(O)C(=O)O.[Ni] (configuration not stated) has measured growth inhibition not below 80%. Thanks!
## Output NO

====

PROTOCOL_TEXT: NCI Yeast Anticancer Drug Screen. Data for the rad50 strain (AID 155);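 further: 0% = growth of vehicle-only cultures of the same strain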
CONDITION_DETAILS: S. cerevisiae rad50 strain growth inhibition; at 50.0 µM
About 79,000 compounds went through this panel and 15% of them were active in at least one assay; those are over-represented in the sample as a whole. Active and inactive are the calls of the source. No stated cut-off is given here; in the data, active means growth inhibition above about 70%; inactive means the rest.
Pick from active, inactive when you respond.

Use the examples below as a reference point.
COMPOUND: CCCCC(CC)CNP(=S)(NCC(CC)CCCC)NCC(CC)CCCC (centres undefined)
CATEGORY: inactive
--
COMPOUND: COC1=CC(C)(C)C=C([Se][Se]C2=CC(C)(C)C=C(OC)C2=O)C1=O
CATEGORY: active
--
COMPOUND: c1ccc([Te][Te]c2ccccc2)cc1
CATEGORY: inactive
--
COMPOUND: COC(=O)C(CCCN=C(N)N[N+](=O)[O-])NC(=O)c1ccc2c(c1O)C(=O)c1ccccc1C2=O (centres undefined)
CATEGORY: active
--
COMPOUND: CN(C)CCC(C(=O)C(Br)Br)(c1ccccc1)c1ccccc1
CATEGORY: active

## Input For CCC1CC2CCC(O2)C(C)C(=O)OC(C)CC2CCC(O2)C(C)C(=O)OC(CC)CC2CCC(O2)C(C)C(=O)OC(C)CC2CCC(O2)C(C)C(=O)O1 (centres undefined) , what call appears in the results of this test?
## Output active

## Input // return assay outcome for COC12C(COC(C)=O)C3=C(C(=O)C(C)=C(N4CCCCC4)C3=O)N1CC1NC12 (centres undefined)
## Output active

## Input What did the test return for CCS(=O)(=O)[O][Sn]([CH2]C)([CH2]C)[O]S(=O)(=O)CC ?
## Output inactive

## Input Could you please tell me the result logged for Cc1c(N)nc([C@H](CC(N)=O)NC[C@H](N)C(N)=O)nc1C(=O)N[C@H](C(=O)N[C@H](C)[C@@H](O)CC(=O)N[C@H](C(=O)NC(O[C@@H]1O[C@@H](C)[C@@H](N)[C@@H](O)[C@H]1O)C(O)c1nc(-c2nc(C(=O)NCCCCN)cs2)cs1)[C@@H](C)O)[C@@H](O[C@@H]1O[C@@H](CO)[C@@H](O)[C@H](O)[C@@H]1O[C@H]1O[C@H](CO)[C@@H](O)[C@H](OC(N)=O)[C@@H]1O)c1c[nH]cn1 (some centres undefined) in this assay?
## Output active

====

PROTOCOL_TEXT: NCI Yeast Anticancer Drug Screen. Data for the mec2-1 strain (AID 157)
CONDITION_DETAILS: S. cerevisiae mec2-1 strain, at 5.0 µM (retest, dose inferred, filed as 0.5), stronger effect = higher value
The panel holds about 79,000 compounds, 15% with a hit somewhere; the sample as a whole holds those more often. The source made the active and inactive calls. No stated cut-off is given here; in the data, active means growth inhibition above about 70%; inactive means the rest.
Provide the reported growth inhibition of each item.

COMPOUND: Oc1cccc2nc3ccccc3nc12
growth inhibition: 9% (inactive)
//
COMPOUND: CC1(Cl)CC(C)(/C=C/Cl)C(Cl)CC1Cl (centres undefined)
growth inhibition: 9% (inactive)
//
COMPOUND: COc1ccc(C2N(Cc3ccc(N(CCCl)CCCl)cc3C)CCCN2Cc2ccc(N(CCCl)CCCl)cc2C)cc1
growth inhibition: -32% (inactive)
//
COMPOUND: C/C(=N\N=C(/[Se])N1CC2CCC(CC2)C1)c1ccccn1
growth inhibition: 40% (inactive)
//
COMPOUND: CCCOc1ccc(/C=C/[N+](=O)[O-])cc1N
growth inhibition: 52% (inactive)
//
COMPOUND: COC1OC(COC(C)=O)C(OC(C)=O)C(OC(C)=O)[C]1(OC(C)=O)[Hg][O]C(C)=O (centres undefined)
growth inhibition: 100% (active)
//
COMPOUND: CCN(CCCl)c1cc(CN(C)C)cc(NC(=O)c2ccc(C(=O)Nc3cccc(N(CCCl)NN)c3)cc2)c1
growth inhibition: -5% (inactive)
//
COMPOUND: COc1c(O)c2c(c3cc(C(=O)N4CCc5c4c(O)c(OC)c4[nH]c(C(=O)N6CC7CC78C6=CC(=O)c6[nH]cc(C)c68)cc54)[nH]c13)CCN2C(N)=O (centres undefined)
growth inhibition: 98% (active)

Please look at the following compound next.
Per the record, c1ccc2c(c1)c1cccc3c4c5ccccc5c5cccc(c2c13)c54 has growth inhibition of -2% (inactive)

====

PROTOCOL_TEXT: NCI Yeast Anticancer Drug Screen. Data for the sgs1 mgt1 strain (AID 161);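 further: 0% = growth of cultures given vehicle only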
CONDITION_DETAILS: S. cerevisiae sgs1 mgt1 strain, at 50.0 µM
Experimental: Growth inhibition of yeast strains with defined genetic alterations is measured as a screen for potential anti-cancer activity. Selected strains with alterations in DNA damage repair or cell cycle control were exposed to compounds and growth inhibition was measured relative to vehicle treated controls. The strain used in this assay is sgs1 mgt1
This is part of a sample that, as a whole, favours compounds with a hit. Of some 79,000 tested, about 15% had one in any assay. The source made the active and inactive calls. No stated cut-off is given here; in the data, active means growth inhibition above about 70%; inactive means the rest. *1 amine or outer side, *2 acyl side, *3 side chain or, on linkers, in order; H or OH if unused. Where a SMILES comes first, the peptide text is derived from it. [ ]: non-standard residue; d: D form. X2 = CC[C@H](C)[C@H](OC(=O)[C@@H](C)[C@@H](CC)N[*:1])C(=O)[*:2]; X3 = C[C@H](N[*:1])C(=O)C(C)(C)C(=O)[*:2]; NMeY = CN[C@@H](Cc1ccc(O)cc1)C(=O)O; NMeL = CN[C@@H](CC(C)C)C(=O)O; NMeV = CN[C@H](C(=O)O)C(C)C
Entry note: the call must match one of 1 (yes) for active, 0 (no) for inactive

COMPOUND: O=C1C=C(CN(CCCl)CCCl)C(=O)C=C1CN(CCCl)CCCl
CATEGORY: 0 (no)
--
COMPOUND: Oc1c(Cl)cc(-c2cc(Cl)c(O)c(Cl)c2)cc1Cl
CATEGORY: 1 (yes)
--
COMPOUND: O=[N+]([O-])c1ccc(O)c(CCl)c1
CATEGORY: 0 (no)
--
COMPOUND: Oc1cccc2cccnc12
CATEGORY: 1 (yes)
--
COMPOUND: CNC(Cc1ccccc1)c1ccc(OC)c(OC)c1 (stereo not given)
CATEGORY: 0 (no)

## Input Test call, this compound: CC[C@H](C)[C@@H]1OC(=O)[C@@H](C)[C@@H](CC)NC(=O)[C@H](C)NC(=O)C(C)(C)C(=O)[C@H](C)NC(=O)[C@H](Cc2ccc(OC)cc2)N(C)C(=O)[C@H](C(C)C)N(C)C(=O)CNC(=O)[C@H](CC(C)C)N(C)C(=O)CNC1=O (cyclo(A[X2]G[NMeL]G[NMeV][NMeY](Me)[X3]))
## Output 1 (yes)

## Input So what was the verdict on CCC[CH2][Sn]([Cl])([CH2]Cl)[CH2]CCC in this test?
## Output 1 (yes)

## Input Call for entry CN(C)CC1CC2C3CC=C4CC(O)CCC4(C)C3CCC2(C)C1=O (stereo not given) :
## Output 1 (yes)

## Input # lookup: test call for CC(C)O.CC(C)O.OCCN(CCO)CCO.OCCN(CCO)CCO.[Ti+2]
## Output 0 (no)

## Input How was O=C(CBr)Nc1ccccc1Cl classified in this test?
## Output 1 (yes)
